- protocol-description: yeast transport mutant growth inhibition pilot in 384-well plates, post-Golgi transport modulator project (AID 636)
- run-conditions: absorbance 615 nm, about 18 h, hits give high values
Exercise: for every item that follows, state its recorded inhibition.
Numeric answer only, unit % assumed.

Req: Name the reported inhibition value associated with the molecule `CN(C1CCCCC1)S(=O)(=O)c1ccc(S(=O)(=O)N2CCN(CCC#N)CC2)cc1`
Resp: -2.27

Req: Similarly, `CCOc1ccc(S(=O)(=O)N2CCN(c3ccc(C)cc3C)CC2)cc1` ?
Resp: -5.07

Req: Moving on to `CCOc1ccc(N(CC(=O)NC2CCCCC2)S(=O)(=O)c2c(C)noc2C)cc1`
Resp: -2.31

Req: Same lookup for `O=C(COc1ccc(F)cc1)Nc1ccc(-n2cnnn2)cc1` , please.
Resp: -4

Req: What about `Cc1cc(C)n2c(SCC(=O)Nc3cc(C)on3)nnc2n1` ?
Resp: -4.19

Req: And the next one, `COc1ccc(N2Cc3ccccc3C2)cc1Cl` ?
Resp: -4.27

Req: Please answer likewise for `COc1ccc(-c2nc(N3CCCC3)[nH]c(=O)c2C#N)cc1`
Resp: -1.45

Req: How about this molecule: `Cc1cccc(-n2ncc3c(NCCCO)ncnc32)c1`
Resp: 2.4

Req: Subsequent entry: CCn1cc(C(=O)NCC2CCCO2)c(=O)c2cc(S(=O)(=O)N(C)C)ccc21 (stereo unspecified)
Resp: -0.13

Req: Further, for `Cn1c(/C=N/n2cnnc2)nc2ccccc21` ?
Resp: -0.26

Req: Okay, and `Cc1ccc(S(=O)(=O)N2CCC(C(=O)N3CCN(Cc4ccccc4)CC3)CC2)cc1` ?
Resp: -1.73

###

- protocol-description: RAM signaling pathway blockade in yeast – S. cerevisiae, Pdr1DBD-CYC8 efflux-inhibited sensitized strain, primary screen (AID 1298);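 further: 0% = DMSO untreated cells without growth and 100% = 10 µM 1-NA-PP1 full growth; higher means more yeast growth rescued from 5-FOA killing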
- run-conditions: S. cerevisiae cbk1-as DSE1-URA3 strain, 5-FOA growth OD615, 2 d; at 50 µM; hits give high values
Would you mind telling me the reported RAM network inhibition of each entry?
Entry rule: numbers only, all in %.

Req: Return reported RAM network inhibition; argument: CCn1c(SCC(=O)Nc2cc(C)ccc2C)nc2c(c1=O)SC(C)C2 (stereo not given)
Resp: 4.64

Req: Continue with `Cn1c(=O)[nH]c(=O)c2c1nc(N1CCCCC1)n2CCSc1nc2ccccc2o1`
Resp: 1.87

Req: Thanks! And CC1(C)CC(=O)CC(C2(O)C(=O)N(Cc3ccccc3)c3ccccc32)O1 (stereo not given) ?
Resp: 1.36

Req: How about this compound: CC(C)C(NC(=O)c1ccc(S(=O)(=O)N2CCOCC2)cc1)c1nc2ccccc2[nH]1 (stereo not given)
Resp: 6.44

Req: Entry COc1ccc(NC(=O)NCCN2C(=O)C3C4C=CC(C4)C3C2=O)cc1 (stereo not given) please
Resp: -1.15

Req: Same for Cc1c(C(=O)OC2CCC(C)CC2)[nH]c2c1C(=O)CCC2 (stereo not given)
Resp: 3.39

Req: Continue with `COCCNC(=O)c1cc(-c2ccccc2OC)on1`
Resp: 2.09

Req: Try `COc1ccccc1Oc1ccc(S(=O)(=O)N2CCOCC2)cc1S(=O)(=O)N1CCOCC1` next.
Resp: 4.3

Req: Repeat with `CCOc1ccc(NC(=O)CSc2nc3c(c(=O)n2-c2ccccc2OC)SCC3)cc1`
Resp: 1.18

Req: // repeat for `O=C(Nc1nnc(-c2ccccc2)s1)c1ccc(Cl)c(S(=O)(=O)N2CCOCC2)c1` and report
Resp: 1.72

###

- protocol-description: RAM signaling pathway blockade in yeast – S. cerevisiae, Pdr1DBD-CYC8 efflux-inhibited sensitized strain, primary screen (AID 1298);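 further: 0% = DMSO untreated cells without growth and 100% = 10 µM 1-NA-PP1 full growth; higher means more yeast growth rescued from 5-FOA killing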
- run-conditions: S. cerevisiae cbk1-as DSE1-URA3 strain, 5-FOA growth OD615, 2 d; at 50 µM; hits give high values
For each record, write down the corresponding RAM network inhibition.
Response body: numeric value in %, unit text excluded.

Req: Look up RAM network inhibition: `CCCCSc1nc2c(cnn2-c2ccc(F)cc2)c(=O)[nH]1`
Resp: 6.19

Req: How about O=C(NC1CCCC1)C1c2ccccc2C(=O)N1CCCN1CCOCC1 (configuration not stated) ?
Resp: 1.51

Req: Another molecule to check: `COc1ccccc1NCN1C(=O)CCC1=O`
Resp: 3.27

Req: Okay, and `CC(C)(O)C#Cc1ccc(C(=O)N2CCN(C(=O)c3ccco3)CC2)cc1` ?
Resp: 2.19

Req: Same again, this time with O=C(NCC1CCCO1)C1CCN(S(=O)(=O)c2cccc3cccnc23)CC1 (configuration not stated)
Resp: 2.72

Req: Would you kindly repeat that for `CCCn1c(OC)nc2c1c(=O)n(C)c(=O)n2C` ?
Resp: 2.06

Req: Try CCn1c(C(=O)NC(C)c2ccc3c(c2)OCCO3)cc2sccc21 (configuration not stated) next.
Resp: 3.22

Req: Could you do the same for Cc1ccc(C2CC(c3ccc(C)cc3)n3nc(N)nc3N2)cc1 (configuration not stated) , please?
Resp: 1.75

Req: Subsequent entry: `CNc1nc(C)nc(-c2ccccc2O)n1`
Resp: 4.49

Req: Input `COc1ccc(N(CC(=O)Nc2ccc3c(c2)OCO3)S(=O)(=O)c2ccccc2)c(OC)c1`
Resp: 9.79

Req: Cool, now `Cc1cc(OCC(=O)NCCO)cc(C)c1Cl`
Resp: 6.24

Req: Cc1ccc(CN2CCNC(=O)C2CC(=O)O)cc1 (configuration not stated) , same question.
Resp: 0.83

###

For each of the molecules below, state its viability.
- protocol-description: H69AR cell proliferation blockers – human, duplicate replicates, primary screen (AID 580);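 further: 100% = mean luminescence of untreated wells and 0% = no signal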
- run-conditions: H69AR lung tumor cells viability, ATP luminescence, 72 h; at 10 µM; hits give low values
Unit % implied. Number only.

Req: Fill in: viability of `COc1ccc(-n2c(Cc3cccn3C)nnc2SCC(=O)Nc2cccc(Cl)c2)cc1` is ___
Resp: 85.3

Req: Subsequent entry: `Cc1ccc(-c2cc(C(F)(F)F)n3nc(C(=O)N4CCCC4)cc3n2)cc1`
Resp: 111

Req: Check `Cc1nc2c(-c3ccccc3)c(C)nn2c(C)c1CCC(=O)NCc1ccco1` too.
Resp: 90.8

Req: Likewise for `COc1ccc(N2CCN(Cc3nc4c(c(=O)n(C)c(=O)n4C)n3Cc3ccccc3C)CC2)cc1` ?
Resp: 80

Req: Try this molecule too: `COC(=O)c1oc2ccc(Br)cc2c1NC(C)=O`
Resp: 98.2

Req: `Cn1c(=O)c(=O)n(C)c2cc(S(=O)(=O)CCC(=O)N3CCOCC3)ccc21` ?
Resp: 95

Req: Next up: CCOC(=O)C1=C(C)N(C)C(=O)NC1c1ccccc1OC (stereo not given)
Resp: 175

Req: Also `COc1cccc(-c2cc(C(=O)N3CCCCCC3)no2)c1` ?
Resp: 85.9

Req: Similarly, `CCOc1ccc(NC(=O)CN(c2cc(C)cc(C)c2)S(=O)(=O)c2c(C)noc2C)cc1` ?
Resp: 74.7

Req: Same question, `COc1ccc(NC(=O)CSc2nc3c(c(=O)n2-c2ccccc2OC)SCC3)cc1` this time
Resp: 89.7

###

- protocol-description: S. cerevisiae growth inhibition in permissive medium (OD615), pilot counter-assay for S. cerevisiae lifespan shortening project, permissive growth control (AID 705)
- run-conditions: OD615, 24 h, at 10 µM, hits give high values
Would you mind telling me the reported growth inhibition of each entry?
Write the number in % without appending the unit.

Req: Which growth inhibition value belongs to `CCCN1CCN(CCCNC(=O)Cn2ncc3c4ccccc4n(C)c3c2=O)CC1` ?
Resp: 4.22

Req: // next record `COc1ccc(N2CCN(C(=O)c3cc4c(-c5ccc(Cl)cc5)nn(C)c4s3)CC2)cc1`
Resp: 2.67

Req: Input C=C(C)c1cccc(C(C)(C)NC(=O)NCC2CCCO2)c1 (stereo unspecified)
Resp: -6.62

Req: Cool, now `Cc1ccc(C)c(NC(=O)CSc2nnc(-c3ccccc3)o2)c1`
Resp: -4.45

Req: Try `Cc1ccc(C(=O)N2CCN(c3ccccc3)CC2)cc1C` next.
Resp: 3.37

Req: Try this molecule next: `Cc1ccc(CSc2nc3c(c(=O)[nH]2)CCC3)cc1`
Resp: -9.96

Req: Next molecule up: `CCn1cc(C(=O)N2CCOCC2)c(=O)c2cc(S(=O)(=O)N(C)C3CCCCC3)ccc21`
Resp: -13.6

Req: Now consider `CC(C)CCSc1nc2c(c(=O)[nH]c(=O)n2C)n1CCCc1ccccc1` .
Resp: -11.8

Req: What would you report for `CCc1ccc(-n2c(O)cnc2Nc2nc(C)cc(C)n2)cc1` ?
Resp: -7.38

Req: What do you get for COc1ccc(-c2nc(CS(=O)CC(=O)NCC3CCCO3)c(C)o2)cc1 (stereo unspecified) ?
Resp: -7.51

Req: Likewise for O=C(Nc1ccc(N2C(=O)C3C4C=CC(C4)C3C2=O)cc1)Nc1nncs1 (stereo unspecified) ?
Resp: -7.11
